Readings of EC50 for the listed molecules
- experimentalSystem: human EDG1 (S1PR1) receptor (Homo sapiens, UniProt P21453)
- Sequence (P21453 whole entry): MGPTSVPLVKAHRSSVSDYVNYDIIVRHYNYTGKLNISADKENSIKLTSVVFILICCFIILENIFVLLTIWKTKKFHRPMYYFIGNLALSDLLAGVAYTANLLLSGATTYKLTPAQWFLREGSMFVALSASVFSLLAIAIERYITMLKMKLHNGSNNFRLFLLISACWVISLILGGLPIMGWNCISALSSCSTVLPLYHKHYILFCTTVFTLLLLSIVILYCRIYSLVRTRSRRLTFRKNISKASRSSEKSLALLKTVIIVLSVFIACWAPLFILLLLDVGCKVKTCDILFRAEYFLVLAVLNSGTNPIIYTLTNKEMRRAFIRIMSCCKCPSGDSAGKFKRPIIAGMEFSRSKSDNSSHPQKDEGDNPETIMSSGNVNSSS
- protocolText: Aequorin assay, agonist potency, CHO-A21-Edg1#17 cells
- experimentalContext: agonist mode, aequorin luminescence; read-out: S1P1 EC50

# molecule, recordedMeasurement
records = [
    ("O=C(O)C1(CN2CC3(Cc4ccc(OCc5ccccc5F)cc4C3)C2)CC1", "> 1000 nM"),
    ("CCOc1cc(F)c(COc2ccc3c(c2)CC2(C3)CN(C3CC(C(=O)O)C3)C2)c(F)c1 (stereo not drawn)", "> 1000 nM"),
    ("O=C(O)C1(CN2CC3(Cc4ccc(OCCc5c(Cl)cccc5Cl)cc4C3)C2)CC1", "> 1000 nM"),
    ("CCc1cccc(Cl)c1COc1ccc2c(c1)CC1(C2)CN(C2CC(C(=O)O)C2)C1 (stereo not drawn)", "< 1000 nM"),
    ("O=C(O)CN1CC2(Cc3ccc(C#Cc4cccc(Cl)c4)cc3O2)C1", "> 1000 nM"),
    ("O=C(O)C1(CN2CC3(Cc4ccc(OCc5cccc6c5CCC6)cc4C3)C2)CC1", "> 1000 nM"),
    ("O=C(O)C1(CN2CC3(Cc4ccc(OCCc5cccc(Cl)c5)cc4C3)C2)CC1", "< 1000 nM"),
    ("O=C(O)C1CC(N2CC3(Cc4ccc(C#Cc5ccc(OC6CCCC6)nc5)cc4C3)C2)C1 (stereo not drawn)", "< 1000 nM"),
    ("Cc1cccc(C)c1COc1ccc2c(c1)CC1(C2)CN(CC2(C(=O)O)CC2)C1", "> 1000 nM"),
    ("O=C(O)CN1CC2(Cc3ccc(C#Cc4ccc(Cl)cc4)cc3O2)C1", "> 1000 nM"),
]

[in] Query the reported EC50 for human EDG1 (S1PR1) receptor (Homo sapiens, UniProt P21453); item: O=C(O)CN1CC2(Cc3ccc(OCc4c(Cl)cccc4Cl)cc3C2)C1
[out] > 1000 nM

[in] Now give it for O=C(O)CN1CC2(Cc3ccc(OCc4ccccc4C(F)(F)F)cc3C2)C1 too.
[out] > 1000 nM

###

- experimentalSystem: human EDG8 (S1PR5) receptor (Homo sapiens)
- Construct: carries the transgenes human EDG8 (S1PR5) receptor (Acession number NP_110387.1); expressed in transfected cells; host or cells: CHO-A21-EDG8#12 (CHO clone co-expressing mitochondrial aequorin and chimaeric Gaqi5)
- Sequence (Q9H228 whole entry): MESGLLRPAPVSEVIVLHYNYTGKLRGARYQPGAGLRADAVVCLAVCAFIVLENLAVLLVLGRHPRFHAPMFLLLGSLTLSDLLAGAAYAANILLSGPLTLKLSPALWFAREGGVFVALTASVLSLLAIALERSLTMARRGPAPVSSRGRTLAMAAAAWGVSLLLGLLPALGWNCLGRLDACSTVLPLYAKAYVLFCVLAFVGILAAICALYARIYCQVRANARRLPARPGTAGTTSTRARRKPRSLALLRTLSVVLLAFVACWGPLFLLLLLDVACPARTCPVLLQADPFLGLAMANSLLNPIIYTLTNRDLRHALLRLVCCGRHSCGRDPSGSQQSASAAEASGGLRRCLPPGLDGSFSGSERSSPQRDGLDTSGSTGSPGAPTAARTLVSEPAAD
- protocolText: Aequorin assay, agonist potency, CHO-A21-EDG8#12 cells
- Type: cell-based
- experimentalContext: agonist mode, aequorin luminescence; read-out: S1P5 EC50 range #
pEC50: −log10 of the molar value.
metric: pEC50

Some compounds with known pEC50 results, for comparison:
# compound, experimentalSystem, pEC50
measured = [
    ("O=C(O)C1(CN2CC3(Cc4ccc(OC5CCc6ccccc65)cc4C3)C2)CC1 (centres unmarked) [Example 130]", "human EDG8 (S1PR5) receptor (Homo sapiens)", "5.00 to 6.00"),
    ("CCOc1c(F)cc(COc2ccc3c(c2)CC2(C3)CN(CC3(C(=O)O)CC3)C2)cc1F [Example 120]", "human EDG8 (S1PR5) receptor (Homo sapiens)", "5.00 to 6.00"),
    ("O=C(O)C1CC(N2CC3(Cc4ccc(OCc5ccc(OCC6CC6)cc5)cc4C3)C2)C1 (centres unmarked) [Example 84]", "human EDG8 (S1PR5) receptor (Homo sapiens)", "5.00 to 6.00"),
    ("CC1CCC(C#Cc2ccc3c(c2)OC2(C3)CN(CC(=O)O)C2)CC1 (centres unmarked) [Example 155]", "human EDG8 (S1PR5) receptor (Homo sapiens)", "6.00 to 7.00"),
    ("O=C(O)CN1CCC2(CC1)Cc1ccc(OCc3c(Cl)cccc3Cl)cc1C2 [Example 160]", "human EDG8 (S1PR5) receptor (Homo sapiens)", "≥ 8.00"),
    ("O=C(O)C1(CN2CC3(Cc4ccc(C#Cc5ccc(OC6CCCC6)nc5)cc4C3)C2)CC1 [Example 116]", "human EDG8 (S1PR5) receptor (Homo sapiens)", "7.00 to 8.00"),
    ("O=C(O)C1(CN2CC3(Cc4ccc(OCCOc5ccccc5Cl)cc4C3)C2)CC1 [Example 145]", "human EDG8 (S1PR5) receptor (Homo sapiens)", "5.00 to 6.00"),
    ("Cc1cccc(C)c1COc1ccc2c(c1)CC1(C2)CN(CC2(C(=O)O)CC2)C1 [Example 39]", "human EDG8 (S1PR5) receptor (Homo sapiens)", "≥ 8.00"),
]

[in] Given the entry O=C(O)C1CC(N2CC3(Cc4ccc(OCCc5ccccc5C(F)(F)F)cc4C3)C2)C1 (centres unmarked) [Example 105] , report its measured pEC50.
[out] 5.00 to 6.00

[in] Now give it for CC(C)Oc1ccc(C#Cc2ccc3c(c2)CC2(C3)CN(CC3(C(=O)O)CC3)C2)cc1 [Example 113] too.
[out] ≥ 8.00

[in] Now give it for COc1ccc(COc2ccc3c(c2)CC2(C3)CN(CC3(C(=O)O)CC3)C2)cc1 [Example 139] too.
[out] 5.00 to 6.00

[in] Now give it for O=C(O)C1CC(N2CC3(Cc4ccc(OCc5c(Cl)cccc5Cl)cc4C3)C2)C1 (centres unmarked) [Example 92] too.
[out] ≥ 8.00

###

Readings of EC50 for the listed compounds
- experimentalSystem: S1P4 (Homo sapiens, UniProt O95977)
- Sequence (O95977 whole entry): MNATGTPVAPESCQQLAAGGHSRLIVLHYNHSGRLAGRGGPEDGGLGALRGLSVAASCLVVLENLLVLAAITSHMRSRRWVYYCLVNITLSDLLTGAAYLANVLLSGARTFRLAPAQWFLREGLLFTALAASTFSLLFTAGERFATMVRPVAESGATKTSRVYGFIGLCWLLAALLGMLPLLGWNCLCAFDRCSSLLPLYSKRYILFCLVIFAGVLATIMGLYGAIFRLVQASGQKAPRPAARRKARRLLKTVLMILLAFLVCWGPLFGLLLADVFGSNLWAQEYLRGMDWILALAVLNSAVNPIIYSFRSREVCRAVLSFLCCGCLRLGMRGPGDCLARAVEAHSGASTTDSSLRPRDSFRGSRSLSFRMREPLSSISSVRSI
- protocolText: Aequorin assay, agonist potency, S1P4
- experimentalContext: agonist mode, aequorin luminescence

Some compounds with known EC50 results, for comparison:
# compound, EC50
data = [
    ("O=C(O)CN1CC2(Cc3ccc(C#Cc4ccc(OC5CCCC5)nc4)cc3C2)C1", "< 1 µM"),
    ("CC(C)Oc1ccc(C#Cc2ccc3c(c2)CC2(C3)CN(C3CC(C(=O)O)C3)C2)cn1 (stereo not drawn)", "> 1 µM"),
]

Lab note: next compound to report on.
[in] Query the reported EC50 for S1P4 (Homo sapiens, UniProt O95977); item: O=C(O)CN1CC2(Cc3ccc(OCc4ccccc4C4CC4)cc3C2)C1
[out] < 1 µM

###

Readings of pEC50 for the listed compounds
- experimentalSystem: human EDG1 (S1PR1) receptor (Homo sapiens, UniProt P21453)
- protocolText: Aequorin assay, agonist potency, CHO-A21-Edg1#17 cells
- experimentalContext: agonist mode, aequorin luminescence; read-out: S1P1 EC50
pEC50: −log10 of the molar value.

[in] Given the entry COc1ccc(COc2ccc3c(c2)CC2(C3)CN(CC3(C(=O)O)CC3)C2)c(Cl)c1 , report its measured pEC50.
[out] < 6.00

[in] Now give it for O=C(O)C1(CN2CC3(Cc4ccc(-c5ccc(OCC6CCCCC6)cc5)cc4C3)C2)CC1 too.
[out] < 6.00

[in] Now give it for CCc1cccc(Cl)c1COc1ccc2c(c1)OC1(C2)CN(CC2(C(=O)O)CC2)C1 too.
[out] < 6.00

[in] Now give it for O=C(O)C1CC(N2CC3(Cc4ccc(OCc5c(Cl)cccc5Cl)cc4C3)C2)C1 (stereo not drawn) too.
[out] < 6.00

[in] Now give it for CCOc1ccc(COc2ccc3c(c2)CC2(C3)CN(CC3(C(=O)O)CC3)C2)c(Cl)c1 too.
[out] < 6.00

[in] Now give it for O=C(O)C1(CN2CC3(Cc4ccc(OCCc5ccc(Cl)cc5)cc4C3)C2)CC1 too.
[out] < 6.00

###

- experimentalSystem: S1P4 (Homo sapiens, UniProt O95977)
- protocolText: Aequorin assay, agonist potency, S1P4
- Format: cell-based
- experimentalContext: agonist mode, aequorin luminescence
metric: EC50

# compound, recordedMeasurement
measured = [
    ("CC(C)Oc1ccc(C#Cc2ccc3c(c2)CC2(C3)CN(C3CC(C(=O)O)C3)C2)cc1 (centres unmarked)", "> 1000 nM"),
    ("O=C(O)C1(CN2CC3(Cc4ccc(-c5ccc(OCc6cccc(Cl)c6)cc5)cc4C3)C2)CC1", "< 1000 nM"),
    ("CC(Oc1ccc(C#Cc2ccc3c(c2)CC2(C3)CN(C3CC(C(=O)O)C3)C2)cn1)C(F)(F)F (centres unmarked)", "< 1000 nM"),
    ("O=C(O)C1(CN2CC3(Cc4ccc(-c5ccc(OCc6ccc(Cl)cc6)cc5)cc4C3)C2)CC1", "> 1000 nM"),
    ("O=C(O)C1(CN2CC3(Cc4ccc(OCc5ccc(Cl)cc5Cl)cc4C3)C2)CC1", "< 1000 nM"),
]

[in] Given the entry O=C(O)C1(CN2CC3(Cc4ccc(OCCc5ccccc5Cl)cc4C3)C2)CC1 , report its measured EC50.
[out] < 1000 nM

[in] Now give it for O=C(O)C1CC(N2CC3(Cc4ccc(OCc5cc(Cl)ccc5Cl)cc4C3)C2)C1 (centres unmarked) too.
[out] < 1000 nM

[in] Now give it for O=C(O)C1(CN2CC3(Cc4ccc(OCc5c(F)cccc5Cl)cc4C3)C2)CC1 too.
[out] < 1000 nM

[in] Now give it for O=C(O)CN1CC2(Cc3ccc(C#Cc4ccccc4)cc3O2)C1 too.
[out] < 1000 nM

[in] Now give it for O=C(O)CN1CC2(Cc3ccc(OCc4c(F)cccc4F)cc3C2)C1 too.
[out] < 1000 nM

[in] Now give it for Cc1cccc(CCCOc2ccc3c(c2)CC2(C3)CN(CC3(C(=O)O)CC3)C2)n1 too.
[out] > 1000 nM
